# Experimental target: hNET (Homo sapiens)
# Construct: expressed in transfected cells; host or cells: HEK-293
# Sequence (P23975 whole entry): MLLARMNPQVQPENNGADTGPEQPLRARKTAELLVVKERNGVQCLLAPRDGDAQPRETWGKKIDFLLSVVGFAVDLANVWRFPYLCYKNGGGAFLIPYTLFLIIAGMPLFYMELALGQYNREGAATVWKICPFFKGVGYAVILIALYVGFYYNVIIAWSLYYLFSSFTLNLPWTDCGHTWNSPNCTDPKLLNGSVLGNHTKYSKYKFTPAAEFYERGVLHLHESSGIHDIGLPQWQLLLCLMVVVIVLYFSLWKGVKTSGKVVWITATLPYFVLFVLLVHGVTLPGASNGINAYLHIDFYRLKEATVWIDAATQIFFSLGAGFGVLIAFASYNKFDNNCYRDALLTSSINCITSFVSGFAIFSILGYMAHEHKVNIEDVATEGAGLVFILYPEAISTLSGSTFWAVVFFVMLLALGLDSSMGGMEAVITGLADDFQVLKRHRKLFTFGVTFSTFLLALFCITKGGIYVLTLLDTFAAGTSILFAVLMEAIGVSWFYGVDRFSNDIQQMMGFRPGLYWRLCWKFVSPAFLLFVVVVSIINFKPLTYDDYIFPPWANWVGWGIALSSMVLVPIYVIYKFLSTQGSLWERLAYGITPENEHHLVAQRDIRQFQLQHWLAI
# Test: hNET membrane radioligand binding assay (Assay 1)
# Cond: 3H-nisoxetine, membranes from HEK-293 cells expressing hNET; read-out: NET pKi (converted)
Metric: Ki

                                   molecule  observed_measurement
0  Clc1cc(Cl)cc(OCc2ccccc2N2CCNCC2)c1 [Example 2-37]               ≤ 10 µM
1  Fc1ccc(Cl)c(OCc2ccccc2N2CCNCC2)c1 [Example 2-27]               ≤ 10 µM
2  Fc1ccccc1OCc1ccccc1N1CCNCC1 [Example 2-1]              ≤ 0.1 µM
3  Ic1cccc(OCc2ccccc2N2CCNCC2)c1 [Example 1]              ≤ 0.1 µM

Measured values drawn from patent US9012460B2 for this set.
